Test system: CP268
Experiment: qHTS profiling for inhibitors of Plasmodium falciparum proliferation (AID 504749); also: nearly all actives have a fitted effect of over 60% in size
Settings: P. falciparum in erythrocytes, SYBR Green DNA, 72 h; series mostly up to 28.7 µM
Records with an inconclusive call do not appear. The source made the active and inactive calls. Calls follow the shape of the dose curve; as a rule, active = well fitted inhibition curve with a large enough effect; inconclusive = small, poorly fitted or top-dose-only effect; inactive = flat fitted curve, though single readings scatter.
Labels: active, inactive

INSERT INTO measurements (compound, label) VALUES
  ('CCCCNc1cc(C(=O)O)cc(S(N)(=O)=O)c1Oc1ccccc1', 'inactive'),
  ('N#Cc1ccc(C(c2ccc(C#N)cc2)n2cncn2)cc1', 'inactive'),
  ('O=NN(CCCl)C(=O)NCCCl', 'inactive'),
  ('Clc1ccc(Nc2nnc(Cc3ccncc3)c3ccccc23)cc1', 'inactive'),
  ('CCc1ccc(CCOc2ccc(CC3SC(=O)NC3=O)cc2)nc1 (stereo not given)', 'inactive'),
  ('O=c1[nH]cnc2[nH]ncc12', 'inactive'),
  ('Cc1[nH]c(=O)c(C#N)cc1-c1ccncc1', 'inactive'),
  ('CC(C)NCC(O)COc1ccc(COCCOC(C)C)cc1 (stereo not given)', 'inactive'),
  ('CNC[C@H](O)c1cccc(O)c1', 'inactive'),
  ('N=c1nc(N2CCCCC2)cc(N)n1O', 'inactive'),
  ('Cc1ccc(N(CC2=NCCN2)c2cccc(O)c2)cc1', 'inactive'),
  ('NCCc1ccc(O)c(O)c1', 'inactive'),
  ('O=C1CCc2cc(OCCCCc3nnnn3C3CCCCC3)ccc2N1', 'inactive'),
  ('CC(=O)Oc1ccccc1C(=O)O', 'inactive'),
  ('CC(C[N+](C)(C)C)OC(N)=O (stereo not given)', 'inactive'),
  ('N[C@@H]1CONC1=O', 'inactive'),
  ('Clc1cccc(Cl)c1NC1=NCCN1', 'inactive'),
  ('Cc1c(C)c2c(c(C)c1O)CCC(C)(COc1ccc(CC3SC(=O)NC3=O)cc1)O2 (stereo not given)', 'inactive'),
  ('O=c1n(CCCN2CCN(c3cccc(Cl)c3)CC2)nc2ccccn12', 'inactive'),
  ('NS(=O)(=O)c1cc2c(cc1Cl)NC=NS2(=O)=O', 'inactive'),
  ('CCOC(=O)C1=C[C@@]2(CC)CCCN3CCc4c(n1c1ccccc41)[C@H]32', 'active'),
  ('Nc1nc2c(ncn2COCCO)c(=O)[nH]1', 'inactive'),
  ('CC(C)C[C@H](NC(=O)[C@@H](O)[C@H](N)Cc1ccccc1)C(=O)O', 'active'),
  ('Cc1oncc1C(=O)Nc1ccc(C(F)(F)F)cc1', 'inactive'),
  ('Cn1cnc([N+](=O)[O-])c1Sc1ncnc2nc[nH]c12', 'inactive');

Data provenance: PubChem BioAssay (NCATS)
